# Target system: human neutrophil elastase (Homo sapiens)
# Construct: purchased Elastin Products Company
# Procedure details: Inhibitory action against human neutrophil elastase (Test Example 1; fluorogenic substrate MeOSuc-AAPV-AMC, buffer with 2M NaCl, 0.002% Brij-35)
# Assay type: biochemical
# Condition description: 37° C., read-out: IC50 value (compound concentration required for 50% inhibition of human neutrophil elastase)
pIC50: −log10 of the molar value.
Observed property: pIC50

(I) COc1cccc(-n2c(C)c(-c3ccnn3-c3ccc(C#N)cc3)c(=O)n(C)c2=O)c1
(II) CCc1cccc(-n2c(C)c(-c3ccnn3-c3ccc(C#N)cc3)c(=O)n(C)c2=O)c1
(III) Cc1cccc(-n2c(C)c(-c3ccnn3-c3ccc(C#N)cc3)c(=O)n(C)c2=O)c1
(IV) COc1ccc(Cn2c(=O)c(-c3ccnn3-c3ccc(C#N)cc3)c(C)n(-c3cccc(C(F)(F)F)c3)c2=O)cc1
Ask: With the 4 compounds above, produce a list ordered by ascending pIC50. Sort the labels as requested; that list is your answer.
Reply: IV, I, II, III

(A) CNC(=O)CCCn1c(=O)c(-c2ccnn2-c2ccc(C#N)cc2)c(C)n(-c2cccc(C(F)(F)F)c2)c1=O
(B) CN(C)C=Nc1c(-c2ccnn2-c2ccc(C#N)cc2)c(=O)n(C)c(=O)n1-c1cccc(C(F)(F)F)c1
(C) Cc1c(-c2ccnn2-c2ccc(C#N)cc2)c(=O)n(C)c(=O)n1-c1cccc(Cl)c1
Ask: Put the items in sequence by pIC50, from largest down. Sort the labels as requested; that list is your answer.
Reply: C, A, B
(C: 7.02, A: 5.89, B: 5.65)

---

# Target system: human neutrophil elastase (Homo sapiens, UniProt P08246)
# Construct: purchased Elastin Products Company
# Sequence (P08246 30-267): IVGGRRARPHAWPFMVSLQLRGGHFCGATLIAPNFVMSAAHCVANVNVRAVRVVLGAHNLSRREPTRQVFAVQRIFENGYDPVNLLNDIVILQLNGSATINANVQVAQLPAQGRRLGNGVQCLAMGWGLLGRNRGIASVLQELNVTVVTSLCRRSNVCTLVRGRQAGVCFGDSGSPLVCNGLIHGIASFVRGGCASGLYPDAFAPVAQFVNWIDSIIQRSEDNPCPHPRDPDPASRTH
# Procedure details: Inhibitory action against human neutrophil elastase (Test Example 1; fluorogenic substrate MeOSuc-AAPV-AMC, buffer with 2M NaCl, 0.002% Brij-35)
# Assay type: biochemical
# Condition description: 37° C., read-out: IC50 value (compound concentration required for 50% inhibition of human neutrophil elastase)
Observed property: IC50 (nM)

Completed entries (count: 2):
CNC(=O)Cn1c(=O)c(-c2ccnn2-c2ccc(C#N)cc2)c(C)n(-c2cccc(C(F)(F)F)c2)c1=O : 184
Cc1c(-c2ccnn2-c2ccc(C#N)cc2)c(=O)n(C)c(=O)n1-c1cccc(C#N)c1 : 648

(I) Cc1c(-c2ccnn2-c2ccc(C#N)cc2)c(=O)n(C)c(=O)n1-c1cccc(C(F)(F)F)c1 [Example 1]
(II) Cc1c(-c2ccnn2-c2ccc(C#N)cc2)c(=O)n(CCCO)c(=O)n1-c1cccc(C(F)(F)F)c1
Ask: // select label with min value of measured IC50 from [ I , II ] Identify your selection by its label.
Reply: I

---

# Target system: human neutrophil elastase (Homo sapiens)
# Construct: purchased Elastin Products Company
# Procedure details: Inhibitory action 2 against human neutrophil elastase (Test Example 2; fluorogenic substrate MeOSuc-AAPV-AMC, buffer with 400 mM NaCl, 0.2 mg/ml BSA)
# Assay type: biochemical
# Condition description: 37° C., read-out: IC50 value (compound concentration required for 50% inhibition of human neutrophil elastase)
Observed property: IC50 (nM)

Cc1c(-c2c(S(=O)(=O)NCCO)cnn2-c2ccc(C#N)cc2)c(=O)n(C)c(=O)n1-c1cccc(C(F)(F)F)c1 [Example 227] : 7.8

(I) CCc1c(-c2ccnn2-c2ccc(C#N)cc2)c(=O)n(C)c(=O)n1-c1cccc(C(F)(F)F)c1 [Example 50]
(II) Cc1c(-c2c(S(N)(=O)=O)cnn2-c2ccc(C#N)cc2)c(=O)n(C)c(=O)n1-c1cccc(C(F)(F)F)c1 [Example 211]
(III) Cc1c(-c2ccnn2-c2ccc(C#N)cc2)c(=O)n(C)c(=O)n1-c1cccc(Cl)c1 [Example 17]
Ask: Put the items in sequence by IC50, from largest down. Sort the labels as requested; that list is your answer.
Reply: III, I, II

---

# Target system: human neutrophil elastase (Homo sapiens)
# Construct: purchased Elastin Products Company
# Procedure details: Inhibitory action against human neutrophil elastase (Test Example 1; fluorogenic substrate MeOSuc-AAPV-AMC, buffer with 2M NaCl, 0.002% Brij-35)
# Format: biochemical
# Condition description: 37° C., read-out: IC50 value (compound concentration required for 50% inhibition of human neutrophil elastase)
Observed property: IC50 (nM)

Cc1c(-c2ccnn2-c2ccc(C#N)cc2)c(=O)n(CCCCCNC(=O)OC(C)(C)C)c(=O)n1-c1cccc(C(F)(F)F)c1 [Example 8] : 64
CNCCn1c(=O)c(-c2ccnn2-c2ccc(C#N)cc2)c(C)n(-c2cccc(C(F)(F)F)c2)c1=O [Example 70] : 43
CCCn1c(=O)c(-c2ccnn2-c2ccc(C#N)cc2)c(N=CN(C)C)n(-c2cccc([N+](=O)[O-])c2)c1=O [Example 29] : 2140
Cc1c(-c2ccnn2-c2ccc(C#N)cc2)c(=O)n(C)c(=O)n1-c1cccc(S(C)(=O)=O)c1 [Example 39] : 19900

(a) Cn1c(=O)c(-c2ccnn2-c2ccc(C#N)cc2)c(N)n(-c2cccc(C(F)(F)F)c2)c1=O [Example 58]
(b) Cc1c(-c2ccnn2-c2ccc(C#N)cc2)c(=O)n(CC(N)=O)c(=O)n1-c1cccc(C(F)(F)F)c1 [Example 76]
Ask: Choose between a and b : whose measured IC50 value is numerically larger? Identify your selection by its label.
Reply: a
(a: 552 nM, b: 232 nM)

---

# Target system: human neutrophil elastase (Homo sapiens, UniProt P08246)
# Construct: purchased Elastin Products Company
# Procedure details: Inhibitory action 2 against human neutrophil elastase (Test Example 2; fluorogenic substrate MeOSuc-AAPV-AMC, buffer with 400 mM NaCl, 0.2 mg/ml BSA)
# Assay type: biochemical
# Condition description: 37° C., read-out: IC50 value (compound concentration required for 50% inhibition of human neutrophil elastase)
# Method: Assay buffer (0.4 unit/ml HNE (human neutrophil elastase, available from Elastin Products Company), 200 mM HEPES [N-(2-hydroxyethyl)piperazine-N′-(2-ethanesulfonic acid)], pH 7.5, 400 mM NaCl, 0.2 mg/ml BSA (bovine serum albumin)) 100 μl, water for injection 20 μl and 1% DMSO (dimethyl sulfoxide) solution of the present compound 20 μl were mixed in a 96 well plate and the mixed solutions were pre-incubated at 37° C. for five minutes. […]
pIC50: −log10 of the molar value.
Observed property: pIC50

Cc1c(-c2ccnn2-c2ccc(C#N)cc2)c(=O)n([C@H](C)CS(N)(=O)=O)c(=O)n1-c1cccc(C(F)(F)F)c1 : 8.02
CCCCC(=O)NS(=O)(=O)c1cnn(-c2ccc(C#N)cc2)c1-c1c(C)n(-c2cccc(C(F)(F)F)c2)c(=O)n(C)c1=O : 8.27
Cc1c(-c2c(S(=O)(=O)N3CCOC3=O)cnn2-c2ccc(C#N)cc2)c(=O)n(C)c(=O)n1-c1cccc(C(F)(F)F)c1 : 8.11

(I) CCn1c(=O)c(-c2c(C(C)(C)N)cnn2-c2ccc(C#N)cc2)c(C)n(-c2cccc(C(F)(F)F)c2)c1=O
(II) Cc1c(-n2cnnc2-c2ccc(C#N)cc2)c(=O)n(C(C)C)c(=O)n1-c1cccc(C(F)(F)F)c1
(III) CCn1c(=O)c(-c2c(C(=O)N3CC(O)C3)cnn2-c2ccc(C#N)cc2)c(C)n(-c2cccc(C(F)(F)F)c2)c1=O
Ask: Ascending by pIC50, please: list the molecules accordingly. Sort the labels as requested; that list is your answer.
Reply: I, III, II
(I: 7.53, III: 8.00, II: 8.26)

---

# Target system: human neutrophil elastase (Homo sapiens)
# Construct: purchased Elastin Products Company
# Sequence (P08246 30-267): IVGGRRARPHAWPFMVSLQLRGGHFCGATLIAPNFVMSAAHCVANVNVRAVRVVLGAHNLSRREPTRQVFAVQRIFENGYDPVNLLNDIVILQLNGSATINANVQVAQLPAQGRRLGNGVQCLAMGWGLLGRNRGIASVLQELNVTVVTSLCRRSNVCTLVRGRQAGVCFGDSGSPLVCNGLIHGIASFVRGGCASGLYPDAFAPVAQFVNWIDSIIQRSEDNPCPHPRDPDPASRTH
# Procedure details: Inhibitory action 2 against human neutrophil elastase (Test Example 2; fluorogenic substrate MeOSuc-AAPV-AMC, buffer with 400 mM NaCl, 0.2 mg/ml BSA)
# Type: biochemical
# Condition description: 37° C., read-out: IC50 value (compound concentration required for 50% inhibition of human neutrophil elastase)
pIC50: −log10 of the molar value.
Observed property: pIC50

Completed entries (count: 5):
Cc1c(-c2ccnn2-c2ccc(C#N)cc2)c(=O)n(C(C)CN2CCOCC2)c(=O)n1-c1cccc(C(F)(F)F)c1 (stereo not shown) : 8.00
Cc1c(-c2ccnn2-c2ccc(C#N)cc2)c(=O)n(C(C)CCN2CCOCC2)c(=O)n1-c1cccc(C(F)(F)F)c1 (stereo not shown) : 7.89
Cc1c(-c2ccnn2-c2ccc(C#N)cc2)c(=O)n(C2CCN(C(=O)C(C)(C)N)CC2)c(=O)n1-c1cccc(C(F)(F)F)c1 : 7.99
Cc1c(-c2c(S(N)(=O)=O)cnn2-c2ccc(C#N)cc2)c(=O)n(C)c(=O)n1-c1cccc(C(F)(F)F)c1 [Example 205] : 7.82
CNS(=O)(=O)c1cnn(-c2ccc(C#N)cc2)c1-c1c(C)n(-c2cccc(C(F)(F)F)c2)c(=O)n(C)c1=O : 7.83

(A) CCn1c(=O)c(-c2ccnn2-c2ccc(C#N)cc2)c(C)n(-c2cccc(C(F)(F)F)c2)c1=O
(B) Cc1c(-c2c(F)cnn2-c2ccc(C#N)cc2)c(=O)n(C)c(=O)n1-c1cccc(C(F)(F)F)c1
Ask: Choose between A and B : whose measured pIC50 value is numerically larger? Identify your selection by its label.
Reply: A
(A: 7.90, B: 7.53)
